Target: F508delCFTR (Homo sapiens, UniProt P13569, DEL508-508)
Construct: expressed in transfected cells; host or cells: CFBE41o- human lung derived epithelial cells (CFBE41o-F508delCFTR-HRP), doxycycline-inducible
Sequence (P13569 with tags, fused parts or gaps DEL508-508): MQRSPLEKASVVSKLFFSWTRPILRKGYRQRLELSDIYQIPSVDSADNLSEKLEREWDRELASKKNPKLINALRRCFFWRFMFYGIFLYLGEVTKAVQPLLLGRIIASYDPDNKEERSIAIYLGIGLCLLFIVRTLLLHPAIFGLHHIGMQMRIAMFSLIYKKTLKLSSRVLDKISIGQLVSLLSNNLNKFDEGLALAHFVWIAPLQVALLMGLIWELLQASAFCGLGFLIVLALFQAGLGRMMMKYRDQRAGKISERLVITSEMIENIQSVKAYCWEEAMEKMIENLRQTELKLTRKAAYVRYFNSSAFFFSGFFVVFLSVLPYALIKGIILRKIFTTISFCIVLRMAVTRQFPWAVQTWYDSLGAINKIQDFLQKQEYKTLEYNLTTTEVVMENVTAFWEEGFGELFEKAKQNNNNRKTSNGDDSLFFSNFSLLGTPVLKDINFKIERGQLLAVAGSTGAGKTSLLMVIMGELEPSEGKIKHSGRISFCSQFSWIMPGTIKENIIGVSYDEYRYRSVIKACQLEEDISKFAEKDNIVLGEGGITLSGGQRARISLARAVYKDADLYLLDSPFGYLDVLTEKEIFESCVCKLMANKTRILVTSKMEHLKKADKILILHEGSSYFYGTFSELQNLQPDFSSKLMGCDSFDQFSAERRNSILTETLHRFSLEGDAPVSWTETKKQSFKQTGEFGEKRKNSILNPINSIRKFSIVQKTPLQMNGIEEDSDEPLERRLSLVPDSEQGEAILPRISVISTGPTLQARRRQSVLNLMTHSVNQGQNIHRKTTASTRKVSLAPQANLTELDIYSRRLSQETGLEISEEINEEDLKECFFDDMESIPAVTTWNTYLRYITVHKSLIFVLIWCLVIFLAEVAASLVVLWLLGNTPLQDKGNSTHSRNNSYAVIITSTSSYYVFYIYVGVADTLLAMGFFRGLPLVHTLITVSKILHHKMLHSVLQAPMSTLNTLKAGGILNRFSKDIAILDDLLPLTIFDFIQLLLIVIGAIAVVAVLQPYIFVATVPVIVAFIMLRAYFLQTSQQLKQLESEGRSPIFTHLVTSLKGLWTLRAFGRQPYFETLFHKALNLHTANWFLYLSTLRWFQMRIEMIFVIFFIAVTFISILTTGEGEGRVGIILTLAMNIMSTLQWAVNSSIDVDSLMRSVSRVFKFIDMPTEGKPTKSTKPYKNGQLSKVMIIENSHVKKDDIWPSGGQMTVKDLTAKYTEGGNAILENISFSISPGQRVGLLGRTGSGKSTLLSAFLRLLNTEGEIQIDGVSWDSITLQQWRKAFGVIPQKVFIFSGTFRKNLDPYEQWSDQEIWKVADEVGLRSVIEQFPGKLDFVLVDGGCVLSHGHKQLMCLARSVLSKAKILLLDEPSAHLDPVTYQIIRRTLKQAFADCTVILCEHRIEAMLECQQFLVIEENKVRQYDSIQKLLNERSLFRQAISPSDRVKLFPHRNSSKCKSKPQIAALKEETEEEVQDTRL
Assay: Cell Surface Expression-Horse Radish Peroxidase (CSE-HRP) Assay;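 note: co-corrector chromenyl benzoic acid corrector at 2 or 3 µM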
Type: cell-based
Conditions: with co-corrector; read-out: EC50 (with co-corrector)
Description: A cellular assay for measuring the F508delCFTR cell surface expression after correction with test compounds either without or with a co-corrector (2 μM of 3-[(2R,4R)-4-({[1-(2,2-difluoro-1,3-benzodioxol-5-yl)cyclopropyl]carbonyl}amino)-7-methoxy-3,4-dihydro-2H-chromen-2-yl]benzoic acid), was developed in human lung derived epithelial cell line (CFBE4lo−) (Veit G et al, (2012) Mol Biol Cell. 23(21): 4188-4202). […] The raw counts from the experiment were analyzed using Accelrys® Assay Explorer v3.3. […]
pEC50: −log10 of the molar value.
Below is a list of entries, each paired with its recorded pEC50 value.

[
  {
    "Structure as smiles": "COc1ncc(C2CCC2)cc1C1(C(=O)NS(=O)(=O)c2cccc3ncccc23)CC1",
    "pEC50": "> 5.52"
  },
  {
    "Structure as smiles": "COc1ccc(C2CCC2)cc1C1(C(=O)NS(=O)(=O)c2cccc3c2CCN3)CC1",
    "pEC50": "> 5.52"
  },
  {
    "Structure as smiles": "O=C(NS(=O)(=O)c1cccnc1)C1(c2ccc(Cl)cc2Cl)CC1",
    "pEC50": "5.00 to 5.52"
  },
  {
    "Structure as smiles": "CCc1ccc(O[C@@H]2CCOC2)c(C2(C(=O)NS(=O)(=O)c3cccc4nc(C)ccc34)CC2)c1",
    "pEC50": "> 5.52"
  },
  {
    "Structure as smiles": "COc1ncc(C2CCC2)cc1C1(C(=O)NS(=O)(=O)c2cccc3nc(C)ccc23)CC1",
    "pEC50": "> 5.52"
  },
  {
    "Structure as smiles": "Cc1ccc(C)c(C2(C(=O)NS(=O)(=O)c3cccc4nc(N)ccc34)CC2)c1",
    "pEC50": "> 5.52"
  },
  {
    "Structure as smiles": "COCC1(c2ccc(OC)c(C3(C(=O)NS(=O)(=O)c4cccc5nc(N)ccc45)CC3)c2)CC1",
    "pEC50": "> 5.52"
  },
  {
    "Structure as smiles": "Cc1ccc(S(=O)(=O)NC(=O)C2(c3cccc(Cl)c3)CC2)cc1C",
    "pEC50": "< 5.00"
  }
]

Hello, the source for this data is patent US10829473B2, in case you need it.
